system: HCT-116 colon; assay: NCI tumour cell line growth inhibition, 48 h
Some compounds, each annotated with its measured TGI.

compound: C=CCOC(=O)NC1C(OC(C)[C@@H](NC(=O)OCc2ccccc2)C(=O)OC(C)(C)C)OC(COC(C)=O)C(OC(C)=O)C1OC(C)=O (stereo partly drawn)
target system: HCT-116 colon
TGI: > 100 µM
//
compound: O=C(/C=C/c1ccccc1)NNC(=O)c1c(Cl)c(Cl)c(Cl)c(Cl)c1-c1nc2ccccc2[nH]1
target system: HCT-116 colon
TGI: 53.6 µM
//
compound: COc1cc2c3c(n(CCCCN)c(=O)c2cc1OC)-c1cc2c(cc1C3=O)OCO2
target system: HCT-116 colon
TGI: 0.797 µM
//
compound: Cc1cccc(CP(Cc2cccc(C)c2)CC2(Cp3c4ccccc4c4ccccc43)COC2)c1
target system: HCT-116 colon
TGI: > 100 µM
//
compound: O=C(NCCNCCCNC(=O)c1cc(-c2ccccc2)nc2ccccc12)c1cccc(O)c1O
target system: HCT-116 colon
TGI: 28.5 µM
//
compound: COc1ccc(C(=O)/C=C/c2cccc([N+](=O)[O-])c2)c(OC)c1
target system: HCT-116 colon
TGI: 1.68 µM
//
compound: CCCN(CCCc1ccccc1)CCc1ccc2[nH]c(=S)[nH]c2c1
target system: HCT-116 colon
TGI: > 100 µM
//
compound: O=C(CC(=O)C1=CNc2ccccc2S1)C(=O)Nc1ccc(Cl)cc1
target system: HCT-116 colon
TGI: > 50 µM
//
compound: COc1cc(-c2cc(-c3ccccc3)nc(-c3c(OC)ccc4c(C)cc(=O)oc34)c2)cc(OC)c1OC
target system: HCT-116 colon
TGI: > 100 µM
//
compound: COc1ccc(C2CC(C)(O)Oc3cc4c(cc32)OCO4)cc1 (stereo not drawn)
target system: HCT-116 colon
TGI: > 100 µM
//
compound: O=C(C[n+]1ccc2ccccc2c1)c1ccc2ccc3ccccc3c2c1
target system: HCT-116 colon
TGI: 13.6 µM
//
compound: Clc1ccc(N=Nc2nc3ccccc3nc2N=Nc2ccc(Cl)cc2Cl)c(Cl)c1
target system: HCT-116 colon
TGI: > 100 µM
//
compound: C=CCC(N(C)C(=O)[C@H](Cc1ccccc1)NC(=O)OCc1ccccc1)P(=O)(Oc1ccccc1)Oc1ccccc1 (stereo partly drawn)
target system: HCT-116 colon
TGI: > 100 µM

* * *

system: RPMI-8226 leukemia; assay: NCI tumour cell line growth inhibition, 48 h

molecule: CN[C@H](C#Cc1c(F)ccc2c1/C(=C/c1[nH]ccc1OC)C(=O)N2)CO
TGI: 1.8 µM

molecule: COc1cc(OC)nc(-n2c(N)c(C#N)c3ccc([N+](=O)[O-])cc3c2=O)n1
TGI: > 100 µM

molecule: Cc1ccc(/C=C/c2nnc(N/N=C/c3ccc4c(c3)OCO4)[nH]c2=O)cc1
TGI: > 100 µM

molecule: CC(C)OCC1CC(CC(=O)Nc2nncs2)C(=O)O1 (centres undefined)
TGI: > 100 µM

molecule: C/C=C\C(CC(=O)NCCC1CN(S(=O)(=O)c2ccc(C)cc2)c2ccccc21)CC(=O)OC (centres undefined)
TGI: > 100 µM

molecule: CN(C)CCN(C)c1ccc2c(=O)n(CCN(C)C)c(=O)n3c4ccccc4c(=O)c1c23
TGI: 3.32 µM

molecule: CCCCC[C@H]1C/C=C2/C(=O)C=C[C@@H]2C/C=C\CCCC(=O)O[C@@H](CCCCC)C/C=C2/C(=O)C=C[C@@H]2C/C=C\CCCC(=O)O1
TGI: 0.599 µM

molecule: C1=CC=C2NCCCCCCCNC3=CC=CC=CC3=NCCCCCCCN=C2C=C1
TGI: > 100 µM

molecule: COc1cc2c(ccc3c4cc(OC)c(OC)cc4c[n+](C)c23)cc1O
TGI: > 75 µM
